# Assay comment: Water solubility by UV–Vis spectrophotometry (phase solubility with cyclodextrins)
# Type: physicochemical
# Condition label: 25 °C, thermodynamic from solid, 298.15 K, without cyclodextrin, read-out: Solubility in H2O
Value kind: solubility at 10 days (µM)

> print(dat)
                                   compound             value.kind  experimental.result
1  COc1cccc(C2CN=NC23C(=O)c2ccccc2OC3c2ccccc2)c1 (stereo not drawn)  solubility at 10 days                 1.55
2  COc1cccc(/C=C2/C(=O)c3ccccc3OC2c2ccccc2)c1 (stereo not drawn)  solubility at 10 days                 1.29
3  O=C1/C(=C/c2ccccc2)C(c2ccccc2)Oc2ccccc21 (stereo not drawn)  solubility at 10 days                  1.5

----------
# Assay comment: MTT cytotoxicity assay, model of normal cells
# Type: cell-based
# Condition label: human, HMEC-1 cells (model of normal cells), 24 h incubation, mean ± SEM, read-out: Cytotoxic effect of analogues incorporated in cyclodextrins and cyclodextrin, IC50

Compound	IC50 at 24 h
OC[C@H]1O[C@@H]2O[C@H]3[C@H](O)[C@@H](O)[C@@H](O[C@H]4[C@H](O)[C@@H](O)[C@@H](O[C@H]5[C@H](O)[C@@H](O)[C@@H](O[C@H]6[C@H](O)[C@@H](O)[C@@H](O[C@H]7[C@H](O)[C@@H](O)[C@@H](O[C@H]8[C@H](O)[C@@H](O)[C@@H](O[C@H]1[C@H](O)[C@H]2O)O[C@@H]8CO)O[C@@H]7CO)O[C@@H]6CO)O[C@@H]5CO)O[C@@H]4CO)O[C@@H]3CO [β-CD, β-cyclodextrin, reference compound]	> 120 µM

----------
# Tested on: MDA-MB-231
# Assay comment: MTT cytotoxicity assay
# Type: cell-based
# Condition label: Homo sapiens, 24 h incubation, mean ± SEM, read-out: Cytotoxic effect, IC50
pIC50: −log10 of the molar value.
Value kind: pIC50

> print(dat)
                                   compound  value.kind  operator.symbol  experimental.result
1  CCN(CC)c1ccc(/C=C2/C(=O)c3ccccc3OC2c2ccccc2)cc1 (stereo not drawn)       pIC50                <                 3.70
2  O=C1/C(=C/c2ccccc2)C(c2ccccc2)Oc2ccccc21 (stereo not drawn)       pIC50                =                 4.63
3            O=C1/C(=C/c2ccccc2)COc2ccccc21       pIC50                =                 4.90
4  COc1cccc(C2CN=NC23C(=O)c2ccccc2OC3c2ccccc2)c1 (stereo not drawn)       pIC50                <                 3.92
5  Cc1ccc(/C=C2/C(=O)c3ccccc3OC2c2ccccc2)cc1 (stereo not drawn)       pIC50                <                 3.92
6  COc1cccc(/C=C2/C(=O)c3ccccc3OC2c2ccccc2)c1 (stereo not drawn)       pIC50                =                 4.82

----------
IC50 values by entry
# Test system: Ishikawa
# Assay comment: MTT cytotoxicity assay
# Format: cell-based
# Condition label: Homo sapiens; Ishikawa; 24 h incubation; mean ± SEM; read-out: Cytotoxic effect, IC50
Value kind: IC50 (µM)

> print(dat)
                                   molecule  target.or.system  value.kind  operator.symbol  experimental.result
1  COc1cccc(/C=C2/C(=O)c3ccccc3OC2c2ccccc2)c1 (stereo not drawn)          Ishikawa        IC50                =                 15.2
2  Cc1ccc(/C=C2/C(=O)c3ccccc3OC2c2ccccc2)cc1 (stereo not drawn)          Ishikawa        IC50                =                 48.9
3            O=C1/C(=C/c2ccccc2)COc2ccccc21          Ishikawa        IC50                =                 10.2
4  O=C1/C(=C/c2ccccc2)C(c2ccccc2)Oc2ccccc21 (stereo not drawn)          Ishikawa        IC50                =                 18.6
5  CCN(CC)c1ccc(/C=C2/C(=O)c3ccccc3OC2c2ccccc2)cc1 (stereo not drawn)          Ishikawa        IC50                >                  200
6  COc1cccc(C2CN=NC23C(=O)c2ccccc2OC3c2ccccc2)c1 (stereo not drawn)          Ishikawa        IC50                =                 68.5
